B1: CRYL1 (parent)
chain: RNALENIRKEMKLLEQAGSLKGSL

Variants of: B1
Test Details: protein stability index of a GFP-peptide fusion (GPS, HEK-293T) (PSI 1-6); higher = more stable;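 also: lentivirally expressed fusions sorted by FACS into six bins by GFP to DsRed ratio, PSI derived from sequencing read proportions per bin multiplied by bin number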
Condition Label: c terminus: a fixed tail appended
Quick reference: protein stability index of the listed items.

Would you please look over these solved cases?
{"Mutation Spec": "L13G", "Readout Value": 4.1}
{"Mutation Spec": "I7E", "Readout Value": 4.02}
{"Mutation Spec": "S23C", "Readout Value": 3.08}
{"Mutation Spec": "L13A", "Readout Value": 3.89}
{"Mutation Spec": "G22Y", "Readout Value": 2.28}
{"Mutation Spec": "L14K", "Readout Value": 4.03}
{"Mutation Spec": "L14I", "Readout Value": 3.47}
{"Mutation Spec": "G18Y", "Readout Value": 2.12}
{"Mutation Spec": "R1Y", "Readout Value": 3.04}
{"Mutation Spec": "Q16D", "Readout Value": 4.1}

Please give the measured protein stability index for this variant: L20Y
3.9

// query protein stability index value for entry M11D
4.34

Would you kindly share the measured protein stability index for N6H ?
3.38

Recorded protein stability index of K21Y , please.
2.78

So what does the record say about protein stability index for L4T ?
4.37

State the recorded protein stability index for this entry: L14R
3.93

# query: protein stability index of entry K9F
1.95
